Test name: 535nm fluorescence optical interference, confirmation, artefact control for HGIII-sPLA2 inhibitor project, biochemical, QFRET (AID 743282);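 note: 0% = DMSO with substrate plus product and 100% = DMSO with substrate alone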
Measurement setup: BODIPY FL product fluorescence interference, at 12.2 µM, hits give high values
Hit rate of the full screen: of about 2,000 compounds, about 170 (8.5%) were called active. A selection follows.

- Compound: "COc1ccc2c(c1)c(=Cc1ccc(N(C)C)cc1)c1cc(-c3ccccc3)[n+](C)n12"
  inhibition [%]: -26.7
- Compound: "COCCn1c(SCC(=O)Nc2cc(OC)ccc2OC)nc2c(c1=O)SC(C)C2 (stereo not drawn)"
  inhibition [%]: -17.4
- Compound: "Cc1ccc(NC(=S)NNC(=O)CSc2nnc(SCc3ccccc3Cl)s2)cc1"
  inhibition [%]: 0.65
